The next entries give measured log10(IC50) for UniProt Q4FZB7.
Sequence (Q4FZB7 whole entry): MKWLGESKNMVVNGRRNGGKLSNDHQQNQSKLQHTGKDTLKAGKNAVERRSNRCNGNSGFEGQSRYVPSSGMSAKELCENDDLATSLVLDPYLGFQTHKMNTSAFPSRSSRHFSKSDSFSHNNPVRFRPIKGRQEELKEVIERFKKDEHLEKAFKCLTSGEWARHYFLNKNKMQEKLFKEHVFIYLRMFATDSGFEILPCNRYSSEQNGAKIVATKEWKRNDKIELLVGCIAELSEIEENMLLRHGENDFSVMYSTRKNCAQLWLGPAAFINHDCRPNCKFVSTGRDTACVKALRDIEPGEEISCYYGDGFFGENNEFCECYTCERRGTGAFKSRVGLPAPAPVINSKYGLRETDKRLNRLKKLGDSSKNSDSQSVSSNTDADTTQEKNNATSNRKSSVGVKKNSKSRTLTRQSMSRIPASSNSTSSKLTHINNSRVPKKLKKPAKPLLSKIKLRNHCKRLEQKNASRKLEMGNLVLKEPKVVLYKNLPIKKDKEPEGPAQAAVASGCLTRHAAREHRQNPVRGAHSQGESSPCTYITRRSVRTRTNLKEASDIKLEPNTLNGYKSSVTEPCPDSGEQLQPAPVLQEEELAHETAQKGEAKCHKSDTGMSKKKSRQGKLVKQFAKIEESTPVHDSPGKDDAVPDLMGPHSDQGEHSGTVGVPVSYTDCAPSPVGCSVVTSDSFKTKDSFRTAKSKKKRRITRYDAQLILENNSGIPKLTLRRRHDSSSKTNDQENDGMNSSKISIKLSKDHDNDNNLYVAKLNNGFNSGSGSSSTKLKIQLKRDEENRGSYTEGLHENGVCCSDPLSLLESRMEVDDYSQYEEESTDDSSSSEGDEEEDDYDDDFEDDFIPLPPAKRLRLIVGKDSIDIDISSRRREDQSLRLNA
Scale: decimal log of IC50, IC50 in nM.

Reference set, count: 5
>  <smiles_input>
Nc1ncnc2c1ncn2Cc1cc(Cl)cc2cc(CNC(=O)c3c(F)cccc3F)[nH]c12

>  <log10(IC50)>
3.38

$$$$
>  <smiles_input>
Cn1ncc2cc(C(=O)NCc3cc4cc(Cl)cc(Cn5cnc6c(N)ncnc65)c4[nH]3)ccc21

>  <log10(IC50)>
2.80

$$$$
>  <smiles_input>
NCc1cc2cc(-c3ccc4c(c3)CCO4)cc(Cn3cnc4c(N)ncnc43)c2[nH]1

>  <log10(IC50)>
2.66

$$$$
>  <smiles_input>
N#Cc1ccc(CNCc2cc3cc(Cl)cc(Cn4cnc5c(N)ncnc54)c3[nH]2)cc1

>  <log10(IC50)>
3.54

$$$$
>  <smiles_input>
Cc1noc(C2CC2)c1C(=O)NCc1cc2cc(Cl)cc(Cn3cnc4c(N)ncnc43)c2[nH]1

>  <log10(IC50)>
2.96

$$$$

Task: Please look at this molecule and report its log10(IC50): `Cc1cc(C#N)ccc1C(=O)NCc1cc2cc(C3=CCC(F)(F)CC3)cc(Cn3cnc4c(N)ncnc43)c2[nH]1`
Output: 1.75

Task: Please look at this molecule and report its log10(IC50): `Cc1ccc(CC(=O)NCc2cc3cc(Cl)cc(Cn4cnc5c(N)ncnc54)c3[nH]2)cc1`
Output: 4.51
